Molecular target: TdT F400A (human, UniProt P04053 1-509, F400A)
Sequence (P04053 whole entry F400A): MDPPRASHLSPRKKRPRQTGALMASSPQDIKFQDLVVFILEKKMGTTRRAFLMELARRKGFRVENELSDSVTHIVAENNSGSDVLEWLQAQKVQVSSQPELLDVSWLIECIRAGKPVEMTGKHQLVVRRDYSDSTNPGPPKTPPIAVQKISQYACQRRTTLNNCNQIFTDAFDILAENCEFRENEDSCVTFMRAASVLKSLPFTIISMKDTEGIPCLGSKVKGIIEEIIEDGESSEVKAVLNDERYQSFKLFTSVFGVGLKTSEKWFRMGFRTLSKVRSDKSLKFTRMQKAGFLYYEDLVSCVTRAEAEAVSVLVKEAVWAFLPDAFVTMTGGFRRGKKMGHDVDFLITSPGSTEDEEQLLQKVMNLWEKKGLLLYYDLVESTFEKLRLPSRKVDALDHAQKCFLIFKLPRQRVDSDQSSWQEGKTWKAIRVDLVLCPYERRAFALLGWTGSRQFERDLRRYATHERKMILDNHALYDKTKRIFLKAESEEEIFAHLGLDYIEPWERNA
Assay: EMSA; 5 mM MgCl2; Hill h fixed at 2; EMSA: 50 mM Tris-HCl pH 8.0, 5 mM MgCl2, 7% glycerol; 0.5 uM FAM-M44, 0.06-10 uM protein; 10 min at 37 C then 5 min at 0 C; gel at 4 C
Conditions: protein: recombinant; chain copies: 2; label: 5'-FAM; single strand

binder	Kd / nM
ATGCTATGGATTGATGTGACTAAGGTTGGAATGATGTGAAGAGA (ssDNA) [FAM-M44]	980
